- Target Entity: UniProtKB Q72874
- Method Summary: Inhibitory activity against HIV protease at a compound concentration of 0.5 nM in MT-4 cells
- Assay type: cell-based
- Recorded Conditions: MT4
Reported Metric: inhibition (%)

Here's what some known entries look like.
{"columns": ["Molecule", "inhibition / %"],
 "data": [
  ["Cc1cc(N(C)C)cc(C)c1OCC(=O)N[C@@H](Cc1ccccc1)C[C@H](O)[C@H](Cc1ccccc1)NC(=O)O[C@H]1COC2OCCC21 (some centres undefined)", 43],
  ["Cc1cccc(CO)c1OCC(=O)N[C@@H](Cc1ccccc1)C[C@H](O)[C@H](Cc1ccccc1)NC(=O)O[C@H]1COC2OCCC21 (some centres undefined)", 88],
  ["Cc1ccccc1OCC(=O)N[C@@H](Cc1ccccc1)C[C@H](O)[C@H](Cc1ccccc1)NC(=O)O[C@H]1COC2OCCC21 (some centres undefined)", 84]
]}

A: Cc1ccc(N)c(C)c1OCC(=O)N[C@@H](Cc1ccccc1)C[C@H](O)[C@H](Cc1ccccc1)NC(=O)O[C@H]1COC2OCCC21 (some centres undefined)
B: Cc1cc([N+](=O)[O-])cc(C)c1OCC(=O)N[C@@H](Cc1ccccc1)C[C@H](O)[C@H](Cc1ccccc1)NC(=O)OC1COC2OCCC12 (some centres undefined)
Q: Return label of the item with the larger inhibition. Candidates: A , B . Output the label that corresponds to your choice.
Ans: A
(A: 87%, B: 53%)

----------
- Test system: Human immunodeficiency virus 1
- Method Summary: Antiviral activity was tested in absence of human serum in MT-4 cells (in vitro)
- Assay type: functional, organism-based
- Recorded Conditions: Human immunodeficiency virus 1, MT4
pEC50: −log10 of the molar value.
Reported Metric: pEC50

{"columns": ["Compound", "Target Entity", "pEC50"],
 "data": [
  ["CNC(=O)c1cc(C)c(OCC(=O)N[C@@H](Cc2ccccc2)C[C@H](O)[C@H](Cc2ccccc2)NC(=O)O[C@H]2COC3OCCC32)c(C)c1 (stereo partly drawn)", "Human immunodeficiency virus 1", 6.66]
]}

I: Cc1cc(N2COCC2=O)cc(C)c1OCC(=O)N[C@@H](Cc1ccccc1)C[C@H](O)[C@H](Cc1ccccc1)NC(=O)O[C@H]1COC2OCCC21 (stereo partly drawn)
II: CCOC(=O)c1cc(C)c(OCC(=O)N[C@@H](Cc2ccccc2)C[C@H](O)[C@H](Cc2ccccc2)NC(=O)O[C@H]2COC3OCCC32)c(C)c1 (stereo partly drawn)
III: Cc1cc(N)cc(C)c1OCC(=O)N[C@@H](Cc1ccccc1)C[C@H](O)[C@H](Cc1ccccc1)NC(=O)O[C@@H]1COC2OCCC21 (stereo partly drawn)
Q: Rank by pEC50 (largest to smallest). Please list the labels in the order you were asked to rank them.
Ans: III, II, I
(III: 7.33, II: 6.97, I: 6.67)

A: Cc1cc2oc(O)nc2c(C)c1OCC(=O)N[C@@H](Cc1ccccc1)C[C@H](O)[C@H](Cc1ccccc1)NC(=O)O[C@H]1COC2OCCC21 (stereo partly drawn)
B: Cc1ccc(O)c(C)c1OCC(=O)N[C@@H](Cc1ccccc1)C[C@H](O)[C@H](Cc1ccccc1)NC(=O)O[C@H]1COC2OCCC21 (stereo partly drawn)
Q: Name the one with the greater pEC50 value, either A or B as given. Bench note: the answer is the label of the chosen record.
Ans: B
(B: 8.15, A: 6.80)

A: Cc1ccc(N)c(C)c1OCC(=O)N[C@@H](Cc1ccccc1)C[C@H](O)[C@H](Cc1ccccc1)NC(=O)O[C@H]1COC2OCCC21 (stereo partly drawn)
B: Cc1cccc(C)c1OCC(=O)N[C@@H](Cc1ccccc1)C[C@H](O)[C@H](Cc1ccccc1)NC(=O)O[C@H]1COC2OCCC21 (stereo partly drawn)
Q: For this pair, A and B , which shows a numerically higher pEC50? Your answer should be the label of the entry you select.
Ans: A

----------
- Test system: Human immunodeficiency virus 1
- Method Summary: Antiviral activity was tested in absence of human serum in MT-4 cells (in vitro)
- Type: functional, organism-based
- Recorded Conditions: Human immunodeficiency virus 1, MT4
Reported Metric: EC50 (nM)

Below, each entry is followed by its recorded EC50 result.
{"columns": ["Compound", "Measure Unit", "EC50"],
 "data": [
  ["Cc1cc2[nH]c(O)nc2c(C)c1OCC(=O)N[C@@H](Cc1ccccc1)C[C@H](O)[C@H](Cc1ccccc1)NC(=O)O[C@H]1COC2OCCC21 (some centres undefined)", "nM", 972],
  ["Cc1cc([N+](=O)[O-])cc(C)c1OCC(=O)N[C@@H](Cc1ccccc1)C[C@H](O)[C@H](Cc1ccccc1)NC(=O)OC1COC2OCCC12 (some centres undefined)", "nM", 927],
  ["Cc1cc(N)cc(C)c1OCC(=O)N[C@@H](Cc1ccccc1)C[C@H](O)[C@H](Cc1ccccc1)NC(=O)O[C@H]1COC2OCCC21 (some centres undefined)", "nM", 9],
  ["Cc1cccc(C)c1OCC(=O)N[C@@H](Cc1ccccc1)[C@@H](O)C[C@H](Cc1ccccc1)NC(=O)OC1COC2OCCC12 (some centres undefined)", "nM", 61],
  ["Cc1cc(N)cc(C)c1SCC(=O)N[C@@H](Cc1ccccc1)C[C@H](O)[C@H](Cc1ccccc1)NC(=O)O[C@H]1COC2OCCC21 (some centres undefined)", "nM", 5790],
  ["Cc1cccc(C)c1NCC(=O)N[C@@H](Cc1ccccc1)C[C@H](O)[C@H](Cc1ccccc1)NC(=O)O[C@H]1COC2OCCC21 (some centres undefined)", "nM", 253]
]}

P: Cc1cc2nsnc2c(C)c1OCC(=O)N[C@@H](Cc1ccccc1)C[C@H](O)[C@H](Cc1ccccc1)NC(=O)O[C@H]1COC2OCCC21 (some centres undefined)
Q: Cc1cccc(C)c1N(C)CC(=O)N[C@@H](Cc1ccccc1)C[C@H](O)[C@H](Cc1ccccc1)NC(=O)O[C@H]1COC2OCCC21 (some centres undefined)
R: COc1cccc(C)c1OCC(=O)N[C@@H](Cc1ccccc1)C[C@H](O)[C@H](Cc1ccccc1)NC(=O)O[C@H]1COC2OCCC21 (some centres undefined)
S: CNc1cc(C)c(OCC(=O)N[C@@H](Cc2ccccc2)C[C@H](O)[C@H](Cc2ccccc2)NC(=O)OC2COC3OCCC23)c(C)c1 (some centres undefined)
Q: // smallest EC50 at index 0, largest at the end Use the labels to give the requested order.
Ans: S, R, P, Q
(S: 112 nM, R: 353 nM, P: 621 nM, Q: 2910 nM)

I: Cc1ncnc(C)c1OCC(=O)N[C@@H](Cc1ccccc1)C[C@H](O)[C@H](Cc1ccccc1)NC(=O)O[C@H]1COC2OCCC21 (some centres undefined)
II: Cc1cc(C)c(OCC(=O)N[C@@H](Cc2ccccc2)C[C@H](O)[C@H](Cc2ccccc2)NC(=O)O[C@H]2COC3OCCC32)c(C)c1 (some centres undefined)
III: Cc1cc(N)cc(C)c1OCC(=O)N[C@@H](Cc1ccccc1)C[C@H](O)[C@H](Cc1ccccc1)NC(=O)OC1COC2OCCC12 (some centres undefined)
Q: Please produce an ascending ranking of these compounds based on EC50. Your task in answering is to list the labels in the requested order.
Ans: III, II, I

----------
- Tested on: Human immunodeficiency virus 1
- Method Summary: Antiviral activity was tested in absence of human serum in MT-4 cells (in vitro)
- Assay type: functional, organism-based
- Recorded Conditions: Human immunodeficiency virus 1, MT4
Reported Metric: EC50 (nM)

{"columns": ["Compound", "Reported Metric", "Value Reported"],
 "data": [
  ["Cc1cc(C)c(OCC(=O)N[C@@H](Cc2ccccc2)C[C@H](O)[C@H](Cc2ccccc2)NC(=O)O[C@H]2COC3OCCC32)c(C)c1N (stereo partly drawn)", "EC50", 23],
  ["Cc1cc(F)cc(C)c1OCC(=O)N[C@@H](Cc1ccccc1)C[C@H](O)[C@H](Cc1ccccc1)NC(=O)O[C@H]1COC2OCCC21 (stereo partly drawn)", "EC50", 268],
  ["Cc1cc(OCCN2CCOCC2)cc(C)c1OCC(=O)N[C@@H](Cc1ccccc1)C[C@H](O)[C@H](Cc1ccccc1)NC(=O)O[C@H]1COC2OCCC21 (stereo partly drawn)", "EC50", 24],
  ["Cc1cc(Cl)c(N)c(C)c1OCC(=O)N[C@@H](Cc1ccccc1)C[C@H](O)[C@H](Cc1ccccc1)NC(=O)O[C@H]1COC2OCCC21 (stereo partly drawn)", "EC50", 62],
  ["Cc1cc(O)cc(C)c1OCC(=O)N[C@@H](Cc1ccccc1)C[C@H](O)[C@H](Cc1ccccc1)NC(=O)O[C@H]1COC2OCCC21 (stereo partly drawn)", "EC50", 32]
]}

1: Cc1cc(N)c(N)c(C)c1OCC(=O)N[C@@H](Cc1ccccc1)C[C@H](O)[C@H](Cc1ccccc1)NC(=O)O[C@H]1COC2OCCC21 (stereo partly drawn)
2: Cc1cc(N)cc(C)c1[S+]([O-])CC(=O)N[C@@H](Cc1ccccc1)C[C@H](O)[C@H](Cc1ccccc1)NC(=O)O[C@H]1COC2OCCC21 (stereo partly drawn)
Q: Identify the item whose EC50 is the smaller number: 1 or 2 Refer to your chosen item by its label in the answer.
Ans: 1
(1: 644 nM, 2: 37500 nM)

1: Cc1cc(N)cc(C)c1S(=O)(=O)CC(=O)N[C@@H](Cc1ccccc1)C[C@H](O)[C@H](Cc1ccccc1)NC(=O)O[C@H]1COC2OCCC21 (stereo partly drawn)
2: Cc1cc(C(=O)N(C)C)cc(C)c1OCC(=O)N[C@@H](Cc1ccccc1)C[C@H](O)[C@H](Cc1ccccc1)NC(=O)O[C@H]1COC2OCCC21 (stereo partly drawn)
3: Cc1cc(C(N)=O)cc(C)c1OCC(=O)N[C@@H](Cc1ccccc1)C[C@H](O)[C@H](Cc1ccccc1)NC(=O)O[C@H]1COC2OCCC21 (stereo partly drawn)
Q: Arrange the 3 compounds by rising EC50, starting with the smallest. Please respond by ranking the labels in the order requested.
Ans: 3, 2, 1

P: Cc1ccnc(C)c1OCC(=O)N[C@@H](Cc1ccccc1)C[C@H](O)[C@H](Cc1ccccc1)NC(=O)O[C@H]1COC2OCCC21 (stereo partly drawn)
Q: Cc1cccc(CO)c1OCC(=O)N[C@@H](Cc1ccccc1)C[C@H](O)[C@H](Cc1ccccc1)NC(=O)O[C@H]1COC2OCCC21 (stereo partly drawn)
Q: Quick one: lower EC50, P or Q ? Indicate your choice by writing its label.
Ans: Q
(Q: 37 nM, P: 184 nM)
